# Test Summary: gradient 5% acetonitrile 3 min, to 50% in 2 min, to 85% in 15 min, held 3 min, 100 µL/min
# Study Conditions: column: Zorbax Extend-C18 2.1 x 50 mm; eluents: water / acetonitrile, 0.1% formic acid
Quantity Kind: RP-LC retention time (s)

Q: Entry `CCn1ccc2ccc(CCC(=O)N3CCN(c4ccc(F)cc4)CC3)cc21` has what RP-LC retention time?
A: 1030

Q: Entry O=C(C1CCCO1)N1CCc2ccc(NS(=O)(=O)c3ccc(F)c(Cl)c3)cc21 (centres undefined) has what RP-LC retention time?
A: 813

Q: Entry CCN(CC)S(=O)(=O)c1ccc2c(c1)N(CC(=O)NCCCOC)C(=O)C1CCCCN21 (centres undefined) has what RP-LC retention time?
A: 802

Q: Entry `O=C(CCc1ccc2cc[nH]c2c1)NCc1ccc(F)cc1` has what RP-LC retention time?
A: 808

Attribution: the METLIN SMRT retention time set (Domingo-Almenara et al. 2019)
